- tested_on: T1, IL-10R1-Fc (UniProt Q13651 22-235, limits assumed)
- T1 sequence (looked up): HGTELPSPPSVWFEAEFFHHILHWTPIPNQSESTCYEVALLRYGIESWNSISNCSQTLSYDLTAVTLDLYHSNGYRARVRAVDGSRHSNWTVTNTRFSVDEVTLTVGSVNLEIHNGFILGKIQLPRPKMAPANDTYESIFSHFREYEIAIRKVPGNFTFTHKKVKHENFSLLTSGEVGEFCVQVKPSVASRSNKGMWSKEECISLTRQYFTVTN
- measurement_notes: ELISA, IL-10R1-Fc coated
Each record here notes measured Decreased fold of binding to ligand after Conjugating with S48.
measure_name: Decreased fold of binding to ligand after Conjugating with S48

[
  {
    "binder": "IL-10 Leu65Cys-S48 (ligand, human, UniProt P22301 19-178, looked up, S48 on Cys 65, mature) SPGQGTQSENSCTHFPGNLPNMLRDLRDAFSRVKTFFQMKDQLDNLLLKESLLEDFKGYLGCQACSEMIQFYLEEVMPQAENQDPDIKAHVNSLGENLKTLRLRLRRCHRFLPCENKSKAVEQVKNAFNKLQEKGIYKAMSEFDIFINYIEAYMTMKIRN",
    "observed_value": "3 fold"
  },
  {
    "binder": "IL-10 Asp25Cys-S48 (ligand, human, UniProt P22301 19-178, looked up, S48 on Cys 25, mature) SPGQGTQSENSCTHFPGNLPNMLRCLRDAFSRVKTFFQMKDQLDNLLLKESLLEDFKGYLGCQALSEMIQFYLEEVMPQAENQDPDIKAHVNSLGENLKTLRLRLRRCHRFLPCENKSKAVEQVKNAFNKLQEKGIYKAMSEFDIFINYIEAYMTMKIRN",
    "observed_value": "3 fold"
  },
  {
    "binder": "IL-10 Lys49Cys-S48 (ligand, human, UniProt P22301 19-178, looked up, S48 on Cys 49, mature) SPGQGTQSENSCTHFPGNLPNMLRDLRDAFSRVKTFFQMKDQLDNLLLCESLLEDFKGYLGCQALSEMIQFYLEEVMPQAENQDPDIKAHVNSLGENLKTLRLRLRRCHRFLPCENKSKAVEQVKNAFNKLQEKGIYKAMSEFDIFINYIEAYMTMKIRN",
    "observed_value": "7 fold"
  },
  {
    "binder": "IL-10 Met39Cys-S48 (ligand, human, UniProt P22301 19-178, looked up, S48 on Cys 39, mature) SPGQGTQSENSCTHFPGNLPNMLRDLRDAFSRVKTFFQCKDQLDNLLLKESLLEDFKGYLGCQALSEMIQFYLEEVMPQAENQDPDIKAHVNSLGENLKTLRLRLRRCHRFLPCENKSKAVEQVKNAFNKLQEKGIYKAMSEFDIFINYIEAYMTMKIRN",
    "observed_value": "62 fold"
  },
  {
    "binder": "IL-10 Arg24Cys-S48 (ligand, human, UniProt P22301 19-178, looked up, S48 on Cys 24, mature) SPGQGTQSENSCTHFPGNLPNMLCDLRDAFSRVKTFFQMKDQLDNLLLKESLLEDFKGYLGCQALSEMIQFYLEEVMPQAENQDPDIKAHVNSLGENLKTLRLRLRRCHRFLPCENKSKAVEQVKNAFNKLQEKGIYKAMSEFDIFINYIEAYMTMKIRN",
    "observed_value": "33 fold"
  },
  {
    "binder": "IL-10 Asp28Cys-S48 (ligand, human, UniProt P22301 19-178, looked up, S48 on Cys 28, mature) SPGQGTQSENSCTHFPGNLPNMLRDLRCAFSRVKTFFQMKDQLDNLLLKESLLEDFKGYLGCQALSEMIQFYLEEVMPQAENQDPDIKAHVNSLGENLKTLRLRLRRCHRFLPCENKSKAVEQVKNAFNKLQEKGIYKAMSEFDIFINYIEAYMTMKIRN",
    "observed_value": "30 fold"
  },
  {
    "binder": "IL-10 Leu23Cys-S48 (ligand, human, UniProt P22301 19-178, looked up, S48 on Cys 23, mature) SPGQGTQSENSCTHFPGNLPNMCRDLRDAFSRVKTFFQMKDQLDNLLLKESLLEDFKGYLGCQALSEMIQFYLEEVMPQAENQDPDIKAHVNSLGENLKTLRLRLRRCHRFLPCENKSKAVEQVKNAFNKLQEKGIYKAMSEFDIFINYIEAYMTMKIRN",
    "observed_value": "12 fold"
  },
  {
    "binder": "IL-10 Arg107Cys-S48 (ligand, human, UniProt P22301 19-178, looked up, S48 on Cys 107, mature) SPGQGTQSENSCTHFPGNLPNMLRDLRDAFSRVKTFFQMKDQLDNLLLKESLLEDFKGYLGCQALSEMIQFYLEEVMPQAENQDPDIKAHVNSLGENLKTLRLRLRCCHRFLPCENKSKAVEQVKNAFNKLQEKGIYKAMSEFDIFINYIEAYMTMKIRN",
    "observed_value": "3 fold"
  },
  {
    "binder": "IL-10 Leu48Cys-S48 (ligand, human, UniProt P22301 19-178, looked up, S48 on Cys 48, mature) SPGQGTQSENSCTHFPGNLPNMLRDLRDAFSRVKTFFQMKDQLDNLLCKESLLEDFKGYLGCQALSEMIQFYLEEVMPQAENQDPDIKAHVNSLGENLKTLRLRLRRCHRFLPCENKSKAVEQVKNAFNKLQEKGIYKAMSEFDIFINYIEAYMTMKIRN",
    "observed_value": "3 fold"
  },
  {
    "binder": "IL-10 Glu142Cys-S48 (ligand, human, UniProt P22301 19-178, looked up, S48 on Cys 142, mature) SPGQGTQSENSCTHFPGNLPNMLRDLRDAFSRVKTFFQMKDQLDNLLLKESLLEDFKGYLGCQALSEMIQFYLEEVMPQAENQDPDIKAHVNSLGENLKTLRLRLRRCHRFLPCENKSKAVEQVKNAFNKLQEKGIYKAMSCFDIFINYIEAYMTMKIRN",
    "observed_value": "13 fold"
  },
  {
    "binder": "IL-10 Ser31Cys-S48 (ligand, human, UniProt P22301 19-178, looked up, S48 on Cys 31, mature) SPGQGTQSENSCTHFPGNLPNMLRDLRDAFCRVKTFFQMKDQLDNLLLKESLLEDFKGYLGCQALSEMIQFYLEEVMPQAENQDPDIKAHVNSLGENLKTLRLRLRRCHRFLPCENKSKAVEQVKNAFNKLQEKGIYKAMSEFDIFINYIEAYMTMKIRN",
    "observed_value": "39 fold"
  },
  {
    "binder": "IL-10 Thr100Cys-S48 (ligand, human, UniProt P22301 19-178, looked up, S48 on Cys 100, mature) SPGQGTQSENSCTHFPGNLPNMLRDLRDAFSRVKTFFQMKDQLDNLLLKESLLEDFKGYLGCQALSEMIQFYLEEVMPQAENQDPDIKAHVNSLGENLKCLRLRLRRCHRFLPCENKSKAVEQVKNAFNKLQEKGIYKAMSEFDIFINYIEAYMTMKIRN",
    "observed_value": "4 fold"
  },
  {
    "binder": "IL-10 Asp41Cys-S48 (ligand, human, UniProt P22301 19-178, looked up, S48 on Cys 41, mature) SPGQGTQSENSCTHFPGNLPNMLRDLRDAFSRVKTFFQMKCQLDNLLLKESLLEDFKGYLGCQALSEMIQFYLEEVMPQAENQDPDIKAHVNSLGENLKTLRLRLRRCHRFLPCENKSKAVEQVKNAFNKLQEKGIYKAMSEFDIFINYIEAYMTMKIRN",
    "observed_value": "13 fold"
  }
]
